- Test system: Calf thymus DNA
- procedure summary: Calf thymus DNA binding affinity compared to ethidium bromide
- Format: nucleic-acid assay
- condition details: Bos taurus
endpoint name: C50 (µM)
Record the value in µM, omitting the unit from your answer.

| query smiles | C50 [µM] |
| --- | --- |
| CNCCN1C(=O)c2cccc3c([N+](=O)[O-])ccc(c23)C1=O | 19 |
| NCCN1C(=O)c2cccc3c([N+](=O)[O-])ccc(c23)C1=O | 17 |
| CCN(CC)CCN1C(=O)c2cccc3cccc(c23)C1=O | 100 |
| CCN(CC)CCN1C(=O)c2cccc3cc([N+](=O)[O-])cc(c23)C1=O | 35 |
| CN(C)CCN1C(=O)c2cccc3cc([N+](=O)[O-])cc(c23)C1=O | 11 |

Query `O=C1c2cccc3c([N+](=O)[O-])ccc(c23)C(=O)N1CCN1CCCC1` on Calf thymus DNA; C50 returned: 11

Form field, C50 with Calf thymus DNA, item `CNCCN1C(=O)c2cccc3cc([N+](=O)[O-])cc(c23)C1=O` : 14

---

- System: Calf thymus DNA
- procedure summary: Calf thymus DNA binding affinity compared to ethidium bromide
- Assay type: nucleic-acid assay
- condition details: Bos taurus
Label scheme for C50: lower than 30 µM is -1, 30 µM and above is 1.

Here are 4 compounds together with their reported answers.
| query smiles | test system | label |
| --- | --- | --- |
| CCN(CC)CCN1C(=O)c2cccc3c([N+](=O)[O-])ccc(c23)C1=O | Calf thymus DNA | -1 |
| CN(C)CCN1C(=O)c2cccc3cccc(c23)C1=O | Calf thymus DNA | 1 |
| O=C1c2cccc3cc([N+](=O)[O-])cc(c23)C(=O)N1CCN1CCCC1 | Calf thymus DNA | -1 |
| CN(C)CCCN1C(=O)c2cccc3cc([N+](=O)[O-])cc(c23)C1=O | Calf thymus DNA | -1 |

# input for lookup
Task item: Please indicate if the recorded C50 for `NCCN1C(=O)c2cccc3cccc(c23)C1=O` meets or exceeds 30 µM.
Reply: 1
